Assay: self-splicing fitness, log relative to wild type (ln ratio); higher = more splicing; Tetrahymena group I intron in knt gene, E. coli kanamycin selection, DiMSum; sequences stand for … in CUCUCU…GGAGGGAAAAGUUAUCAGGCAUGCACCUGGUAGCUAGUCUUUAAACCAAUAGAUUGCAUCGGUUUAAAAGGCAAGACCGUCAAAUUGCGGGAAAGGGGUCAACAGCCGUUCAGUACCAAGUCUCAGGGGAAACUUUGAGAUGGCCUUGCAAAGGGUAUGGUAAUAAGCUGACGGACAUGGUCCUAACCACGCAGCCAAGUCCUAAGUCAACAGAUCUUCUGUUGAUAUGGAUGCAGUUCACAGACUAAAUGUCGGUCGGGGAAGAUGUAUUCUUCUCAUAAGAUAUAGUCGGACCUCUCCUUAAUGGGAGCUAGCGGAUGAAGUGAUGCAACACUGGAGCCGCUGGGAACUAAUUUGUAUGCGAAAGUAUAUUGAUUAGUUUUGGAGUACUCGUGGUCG;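 also: selection with 25 µg/mL kanamycin versus none on LB agar overnight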
Conditions: 30 °C
measurement.type: self-splicing fitness (ln)
The reply should be a number, written without any unit.

Solved entries (count: 5):
UGACAGCAAUAUUACGUUCG = -0.885
AUCUAGCAAUAUUACGCGGC = -3.15
GAAGAGCAAUAUUACGCCUC = -3.27
AAACAGCAAUAUUACGAAUG = -2.81
GCAGAGCAAUAUUACGUGCA = -3.08

Which self-splicing fitness (ln) reading was recorded for the sequence CAUCAGCAAUAUUACGGGUU ?
-1.8

Which self-splicing fitness (ln) reading was recorded for the sequence UGCAAGCAAUAUUACGCAUG ?
-3.63

Which self-splicing fitness (ln) reading was recorded for the sequence UAAGAGCAAUAUUACGGUGC ?
-3.43

Which self-splicing fitness (ln) reading was recorded for the sequence AGCAAGCAAUAUUACGGACC ?
0.36

Which self-splicing fitness (ln) reading was recorded for the sequence GAAAAGCAAUAUUACGGCUA ?
-0.156

* * *

Assay: self-splicing fitness, log relative to wild type (ln ratio); higher = more splicing; Tetrahymena group I intron in knt gene, E. coli kanamycin selection, DiMSum; sequences stand for … in CUCUCU…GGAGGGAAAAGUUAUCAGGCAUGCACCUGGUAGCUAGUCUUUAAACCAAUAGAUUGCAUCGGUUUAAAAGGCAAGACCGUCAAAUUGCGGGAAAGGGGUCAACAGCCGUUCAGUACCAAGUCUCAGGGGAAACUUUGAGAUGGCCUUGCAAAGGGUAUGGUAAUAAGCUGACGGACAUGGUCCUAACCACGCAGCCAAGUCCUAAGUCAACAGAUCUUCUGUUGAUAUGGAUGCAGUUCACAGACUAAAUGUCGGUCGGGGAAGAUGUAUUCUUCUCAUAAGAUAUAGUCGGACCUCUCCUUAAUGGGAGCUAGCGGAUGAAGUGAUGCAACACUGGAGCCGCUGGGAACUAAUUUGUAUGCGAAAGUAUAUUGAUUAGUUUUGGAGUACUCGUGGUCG
Details: 30 °C
Parameter self-splicing fitness (ln): see the listing below.
The reply should be a number, written without any unit.

Solved entries (count: 5):
ACCCAGCAAUAUUACGUCCU = -0.73
UCACAGCAAUAUUACGAUGA = -1.29
GGUAAGCAAUAUUACGACAG = -2.56
CGGCAGCAAUAUUACGGCGU = -1.6
AUAGAGCAAUAUUACGCCUA = -0.415

Which self-splicing fitness (ln) reading was recorded for the sequence UAGUAGCAAUAUUACGCCGG ?
-1.64

Which self-splicing fitness (ln) reading was recorded for the sequence UACAAGCAAUAUUACGAAAA ?
-1.94

Which self-splicing fitness (ln) reading was recorded for the sequence AUGGAGCAAUAUUACGAAAU ?
-1.92

Which self-splicing fitness (ln) reading was recorded for the sequence GGGAAGCAAUAUUACGGCUU ?
-2.11

Which self-splicing fitness (ln) reading was recorded for the sequence CCCUAGCAAUAUUACGCCGG ?
-3.09

Which self-splicing fitness (ln) reading was recorded for the sequence AACCAGCAAUAUUACGUCCU ?
0.026

Which self-splicing fitness (ln) reading was recorded for the sequence AUGAAGCAAUAUUACGAAAG ?
-1.77

Which self-splicing fitness (ln) reading was recorded for the sequence AGACAGCAAUAUUACGAGUC ?
-3.06

Which self-splicing fitness (ln) reading was recorded for the sequence ACUCAGCAAUAUUACGGGCU ?
-0.98

Which self-splicing fitness (ln) reading was recorded for the sequence CUCAAGCAAUAUUACGGAGG ?
-1.53

Which self-splicing fitness (ln) reading was recorded for the sequence GCUCAGCAAUAUUACGAAGG ?
-0.909

Which self-splicing fitness (ln) reading was recorded for the sequence GGCAAGCAAUAUUACGGAAU ?
-0.693

Which self-splicing fitness (ln) reading was recorded for the sequence GGUCAGCAAUAUUACGGCAC ?
-0.775

Which self-splicing fitness (ln) reading was recorded for the sequence CAAGAGCAAUAUUACGGCUU ?
-3.51

Which self-splicing fitness (ln) reading was recorded for the sequence GUCUAGCAAUAUUACGAAAC ?
-0.862

Which self-splicing fitness (ln) reading was recorded for the sequence AGGUAGCAAUAUUACGUUGA ?
-2.89

Which self-splicing fitness (ln) reading was recorded for the sequence GAACAGCAAUAUUACGUUAG ?
-0.954

Which self-splicing fitness (ln) reading was recorded for the sequence CGUGAGCAAUAUUACGUAGC ?
-1.15

Which self-splicing fitness (ln) reading was recorded for the sequence AUCCAGCAAUAUUACGCCUU ?
-0.818

Which self-splicing fitness (ln) reading was recorded for the sequence AUGGAGCAAUAUUACGCUCG ?
-1.58

Which self-splicing fitness (ln) reading was recorded for the sequence CAAUAGCAAUAUUACGACUC ?
-3.34

Which self-splicing fitness (ln) reading was recorded for the sequence CCUGAGCAAUAUUACGCGUU ?
-3.53

Which self-splicing fitness (ln) reading was recorded for the sequence CUAUAGCAAUAUUACGUCAU ?
-2.83

Which self-splicing fitness (ln) reading was recorded for the sequence ACGAAGCAAUAUUACGGCGU ?
-2.47

Which self-splicing fitness (ln) reading was recorded for the sequence UUAGAGCAAUAUUACGCAUU ?
-3.24
